biological target: NKp30 on human NK cells (human) (UniProt O14931); test: cell-based or functional assay
Sequence (O14931 19-201): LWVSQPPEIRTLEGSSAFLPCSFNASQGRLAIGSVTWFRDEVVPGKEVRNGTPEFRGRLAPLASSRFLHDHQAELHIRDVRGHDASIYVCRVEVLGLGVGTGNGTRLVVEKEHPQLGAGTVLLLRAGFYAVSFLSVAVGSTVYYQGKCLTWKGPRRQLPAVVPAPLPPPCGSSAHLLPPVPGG
Classify: criterion met when A431 EC50 with NK cells (pM) is strictly less than 4 pM; criterion not met when A431 EC50 with NK cells (pM) is not.

ΔB7-H6_S3#24-SEED-PGLALA (bispecific antibody, part only; not given: SEED Fc chains and hu225 Fab, part only) chain, part: DLKVEMMAGGTQITPLNDNVTIFCNIFYSQPLNITIMGITWFWKSLTFDKEVKVFEFYGDHQEAFRPGAIVSPWRLKSGDASLRLPGIQLEEAGEYRCEVVVTPYKAQGTVQLEVVASPAS; criterion met

## Task Lab log: compare recorded A431 EC50 with NK cells (pM) with 4 pM; is it strictly lower for ΔB7-H6_wt-SEED-PGLALA (bispecific antibody, part only; not given: SEED Fc chains and hu225 Fab, part only) chain, part: DLKVEMMAGGTQITPLNDNVTIFCNIFYSQPLNITSMGITWFWKSLTFDKEVKVFEFFGDHQEAFRPGAIVSPWRLKSGDASLRLPGIQLEEAGEYRCEVVVTPLKAQGTVQLEVVASPAS ?
## Result criterion not met

## Task Would you kindly verify if A431 EC50 with NK cells (pM) of ΔB7-H6_S3#15-SEED-PGLALA (bispecific antibody, part only; not given: SEED Fc chains and hu225 Fab, part only) chain, part: DLKVEMMAGGTQITPLNDNVTIFCNIFYSQPLNITIMGITWFWKSLTFDKEVKVFEFWGDHQEAFRPGAIVSPWRLKSGDASLRLPGIQLEEAGEYRCEVVVTPYKAQGTVQLEVVASPAS is strictly less than 4 pM?
## Result criterion met

## Task A431 EC50 with NK cells (pM) strictly < 4 pM for this binder? ΔB7-H6_S3#18-SEED-PGLALA (bispecific antibody, part only; not given: SEED Fc chains and hu225 Fab, part only) chain, part: DLKVEMMAGGTQITPLNDNVTIFCNIFYSQPLNITYMGITWFWKSLTFDKEVKVFEFWGDHQEAFRPGAIVSPWRLKSGDASLRLPGIQLEEAGEYRCEVVVTPYKAQGTVQLEVVASPAS
## Result criterion not met

## Task A431 EC50 with NK cells (pM) strictly < 4 pM for this binder? ΔB7-H6_S3#25-SEED-PGLALA (bispecific antibody, part only; not given: SEED Fc chains and hu225 Fab, part only) chain, part: DLKVEMMAGGTQITPLNDNVTIFCNIFYSQPLNITWMGITWFWKSLTFDKEVKVFEFYGDHQEAFRPGAIVSPWRLKSGDASLRLPGIQLEEAGEYRCEVVVTPYKAQGTVQLEVVASPAS
## Result criterion not met
